inhibition in vivo at 150 mg/kg values for the compounds below.
test system: Rattus norvegicus; assay: Antiinflammatory activity in rat assessed as inhibition of carrageenan-induced paw edema at 150 mg/kg; assay type: functional
Entry rule: numbers only, all in %.

Recorded inhibition in vivo at 150 mg/kg, per entry:
Lab note: need inhibition in vivo at 150 mg/kg with Rattus norvegicus for entry CC(C(=O)O)c1ccc2c(c1)Cc1ccccc1-2 (centres undefined) [CICLOPROFEN] , please look it up.
66

Item: CCCCC1C(=O)N(c2ccccc2)N(c2ccccc2)C1=O [PHENYLBUTAZONE]
59

Lookup CC(C)Cc1ccc(C(C)C(=O)O)cc1 (centres undefined) [IBUPROFEN]
56

Consider now this further compound.
Hello, I am looking for reported inhibition in vivo at 150 mg/kg with Rattus norvegicus for CC(C(=O)O)c1ccc2c(c1)C[C@H]1CCCC[C@@H]21 (some centres undefined) . Could you help?
63
